test: phase 1 single agent study: pharmacokinetic analysis; format: in vivo, human patients; settings: human, plasma, oral, 250 mg, 250 mg QD, 19 patients; read-out: 24-hour AUC, 99% value of the cumulative distribution
outcomeMeasure: AUC (ng·h/mL)
Give the value in ng·h/mL but do not write ng·h/mL after it.

query: Reported AUC for Cl.NC(=O)c1c(OCc2c(F)cc(Br)cc2F)nsc1NC(=O)NCCCCN1CCCC1 : what is it?
result: 25000

---

test: phase 1 single agent study: pharmacokinetic analysis; assay type: in vivo, human patients; conditions: human, plasma, oral; 250 mg QD, 19 patients; standard deviation 240 ng/mL; read-out: mean Cmax (maximum observed plasma concentration)
outcomeMeasure: Cmax

query: Reported Cmax for Cl.NC(=O)c1c(OCc2c(F)cc(Br)cc2F)nsc1NC(=O)NCCCCN1CCCC1 : what is it?
result: 457 ng/mL

---

experiment: phase 1 single agent study: pharmacokinetic analysis; type: in vivo, human patients; details: human, plasma, oral, 250 mg, 250 mg QD, 19 patients, log-normal distribution; read-out: 24-hour AUC, geometric mean
outcomeMeasure: AUC

query: Reported AUC for Cl.NC(=O)c1c(OCc2c(F)cc(Br)cc2F)nsc1NC(=O)NCCCCN1CCCC1 : what is it?
result: 7260 ng·h/mL

---

experiment: phase 1 single agent study: pharmacokinetic analysis; format: in vivo, human patients; settings: human, plasma, oral, 250 mg, 250 mg QD, 19 patients; read-out: 24-hour AUC values, range
outcomeMeasure: AUC

query: Reported AUC for Cl.NC(=O)c1c(OCc2c(F)cc(Br)cc2F)nsc1NC(=O)NCCCCN1CCCC1 [compound of formula 2] : what is it?
result: 2880 to 18700 ng·h/mL
